# half-life values compiled below
assay: Pharmacokinetics in SD rats after oral administration of FA extract, NA, NHE or NA-NHE (UPLC-MS/MS of plasma, DAS 3.1); type: in vivo, Sprague-Dawley (SD) rats; settings: male, Sprague-Dawley, rat, plasma, po, 10.8 g/kg, male SD rats, oral FA extract 10.8 g/kg of the original medicinal material; statistical moment parameters; n = 6; read-out: t1/2z (converted)

compound: COc1ccc(-c2cc(=O)c3c(OC)c(OC)c(OC)c(OC)c3o2)cc1OC
displayUnit: h
qualifierOperator: =
half-life: 2.1
//
compound: O=C1C[C@@H](c2ccc(O)cc2)Oc2cc(O)cc(O)c21
displayUnit: h
qualifierOperator: =
half-life: 2.56
//
compound: COc1ccc2ccc(=O)oc2c1CC(O)C(C)(C)O (centres unmarked) [Meranzin hydrate, meranzin hydrate]
displayUnit: h
qualifierOperator: >
half-life: 6.5
//
compound: COc1ccc2ccc(=O)oc2c1CC1OC1(C)C (centres unmarked)
displayUnit: h
qualifierOperator: >
half-life: 6.5
//
compound: COc1ccc([C@@H]2CC(=O)c3c(O)cc(O)cc3O2)cc1O
displayUnit: h
qualifierOperator: =
half-life: 3.4

====

test: Pharmacokinetics in SD rats after oral administration of FA extract, NA, NHE or NA-NHE (UPLC-MS/MS of plasma, DAS 3.1); format: in vivo, Sprague-Dawley (SD) rats; conditions: male, Sprague-Dawley, rat, plasma, po, 10.8 g/kg, male SD rats, oral FA extract 10.8 g/kg of the original medicinal material; statistical moment parameters; n = 6; read-out: CLz/F (converted)

compound: COc1ccc([C@@H]2CC(=O)c3c(O)cc(O)cc3O2)cc1O
CL/F (mL/min/kg): 41.7
//
compound: COc1ccc2ccc(=O)oc2c1CC1OC1(C)C (centres unmarked)
CL/F (mL/min/kg): 2310
//
compound: COc1ccc(-c2cc(=O)c3c(OC)c(OC)c(OC)c(OC)c3o2)cc1OC
CL/F (mL/min/kg): 393
//
compound: COc1ccc2ccc(=O)oc2c1CC(O)C(C)(C)O (centres unmarked) [Meranzin hydrate, meranzin hydrate]
CL/F (mL/min/kg): 16.2
//
compound: O=C1C[C@@H](c2ccc(O)cc2)Oc2cc(O)cc(O)c21
CL/F (mL/min/kg): 9.33

====

test: Stability of the analytes in rat plasma (QC samples); format: in vitro ADME; details: three cycles -20 °C/room temperature, low QC concentration (3.88 / 2.946 / 2.47 / 0.836 / 0.4224 ng/mL), n = 6

compound: O=C1C[C@@H](c2ccc(O)cc2)Oc2cc(O)cc(O)c21
Free–thaw Stability RE [%]: -4.36
//
compound: COc1ccc([C@@H]2CC(=O)c3c(O)cc(O)cc3O2)cc1O
Free–thaw Stability RE [%]: 7.78
//
compound: COc1ccc(-c2cc(=O)c3c(OC)c(OC)c(OC)c(OC)c3o2)cc1OC
Free–thaw Stability RE [%]: 2.21
//
compound: COc1ccc2ccc(=O)oc2c1CC1OC1(C)C (centres unmarked)
Free–thaw Stability RE [%]: -9.71
//
compound: COc1ccc2ccc(=O)oc2c1CC(O)C(C)(C)O (centres unmarked) [Meranzin hydrate, meranzin hydrate]
Free–thaw Stability RE [%]: 5.77

====

test: Pharmacokinetics in SD rats after oral administration of FA extract, NA, NHE or NA-NHE (UPLC-MS/MS of plasma, DAS 3.1); format: in vivo, Sprague-Dawley (SD) rats; details: male, Sprague-Dawley, rat, plasma, po, 10.8 g/kg, male SD rats, oral FA extract 10.8 g/kg of the original medicinal material; two-compartment model parameters; n = 6

compound: COc1ccc([C@@H]2CC(=O)c3c(O)cc(O)cc3O2)cc1O [Hesperetin, hesperetin]
AUC(0-inf): 4420 ng·h/mL
//
compound: COc1ccc2ccc(=O)oc2c1CC(O)C(C)(C)O (stereo not drawn) [Meranzin hydrate, meranzin hydrate]
AUC(0-inf): 12300 ng·h/mL
//
compound: COc1ccc2ccc(=O)oc2c1CC1OC1(C)C (stereo not drawn) [Meranzin, meranzin]
AUC(0-inf): 87.8 ng·h/mL
//
compound: O=C1C[C@@H](c2ccc(O)cc2)Oc2cc(O)cc(O)c21 [Naringenin, naringenin]
AUC(0-inf): 20900 ng·h/mL
//
compound: COc1ccc(-c2cc(=O)c3c(OC)c(OC)c(OC)c(OC)c3o2)cc1OC [Nobiletin, nobiletin]
AUC(0-inf): 473 ng·h/mL
//
compound: C[C@@H]1O[C@@H](O[C@H]2[C@H](Oc3cc(O)c4c(c3)O[C@H](c3ccc(O)cc3)CC4=O)O[C@H](CO)[C@@H](O)[C@@H]2O)[C@H](O)[C@H](O)[C@H]1O [NA, naringin]
AUC(0-inf): 20900 ng·h/mL
